test.method.notes: Stereoselective hydrolysis of anticancer agent esters with human intestinum crassum cancer cells Colo 320
conditions: human, colo 320 cells, pH 7.5
endpoint: metabolised at 12 h (%)
Give just the number in %; leave the unit off.

What does the record list as metabolised at 12 h for O=C(OC[C@H]1O[C@@H](n2cc(F)c(=O)[nH]c2=O)[C@H](O)[C@@H]1O)C(Cc1ccccc1)NC(=O)C(F)(F)F (stereo partly shown) [IIc] ?
13.8

---

test.method.notes: Stereoselective hydrolysis of anticancer agent esters with normal rat liver homogenate
conditions: 12 hours at 30° C., pH 7.5
Answer -1 if enantiomer excess of the carboxylic acid produced by the hydrolysis is under 30 % e.e., and 1 if it is 30 % e.e. or more.

State whether the measured enantiomer excess of the carboxylic acid produced by the hydrolysis reaches 30 % e.e., counting equality as reaching it, for COC(C(=O)Oc1ccc(N(CCCl)CCCl)cc1)c1ccccc1 (racemic)
1

State whether the measured enantiomer excess of the carboxylic acid produced by the hydrolysis reaches 30 % e.e., counting equality as reaching it, for CC(C(=O)Oc1ccc(N(CCCl)CCCl)cc1)c1ccccc1 (racemic)
-1

State whether the measured enantiomer excess of the carboxylic acid produced by the hydrolysis reaches 30 % e.e., counting equality as reaching it, for O=C(Oc1ccc(N(CCCl)CCCl)cc1)C(Cc1ccccc1)NC(=O)C(F)(F)F (racemic)
1

State whether the measured enantiomer excess of the carboxylic acid produced by the hydrolysis reaches 30 % e.e., counting equality as reaching it, for CC(C(=O)OC[C@H]1O[C@@H](n2cc(F)c(=O)[nH]c2=O)[C@H](O)[C@@H]1O)c1ccccc1 (stereo partly drawn)
1

State whether the measured enantiomer excess of the carboxylic acid produced by the hydrolysis reaches 30 % e.e., counting equality as reaching it, for O=C(OC[C@H]1O[C@@H](n2cc(F)c(=O)[nH]c2=O)[C@H](O)[C@@H]1O)C(Cc1ccccc1)NC(=O)C(F)(F)F (stereo partly drawn)
1

State whether the measured enantiomer excess of the carboxylic acid produced by the hydrolysis reaches 30 % e.e., counting equality as reaching it, for COC(C(=O)OC[C@H]1O[C@@H](n2cc(F)c(=O)[nH]c2=O)[C@H](O)[C@@H]1O)c1ccccc1 (stereo partly drawn)
-1
